# Tested on: MS2 coat protein
# procedure-text: apparent KD of MS2 coat protein; higher = weaker reporter binding
# condition-parameters: Eterna round: R107; input ligand: theophylline 2 mM
Consider the following sequences and their measured apparent KD of MS2 coat protein readings.

These recorded examples may help you get a feel for the data.
GAGCUGAUGUAGAGCUUAUAUAAGAGAGAUACCAGUACAGAAAUGUACCCUUGGCAGCUCAACUUUACAUGAGGAUCACCCAUGU [Ex Theophylline A 20] | 23.6 nM
AGUCUUAAAGGAAGGAGCGCAAUCAUAACAUGAGGAUCACCCAUGUCGAGGUGAGGGUCAUUGCAGGUAGGUCGCCUUACUAAGA [Same State - Arginine B (Freestyle 7)] | 134 nM

From here, focus on the item given below.
Which apparent KD of MS2 coat protein reading was recorded for the sequence CUAUGCAGGUCGGCCGCCACUACACACAUGAGGAUCACCCAUGUAGUUACUGGGUGAAGUGGCAGUAGGACCGGGACCUGCACAU [Brourdmod15] ?
659 nM

###

# System: MS2 coat protein
# procedure-text: apparent KD of MS2 coat protein; higher = weaker reporter binding
# condition-parameters: Eterna round: R107; input ligand: theophylline 20 uM
Returns one of satisfied or not satisfied; satisfied when apparent KD of MS2 coat protein is >= 30 nM.

Before answering, review these 10 worked examples.
AACAUGAGGAUCACCCAUGUUUGCUAUGAAGGAGCGUCGGAAAUGACAGGUAGGUCGCAUGGUAGACCGAGUAUUAUCUGUAUGG [EAA NP+V+V2 #11] | not satisfied
UCGCCCGGGUCGGCCGCCACUGAGGUAAUAUGACAUGAGGAUCACCCAUGUUGUCAUGUGGAACAUAGGACCGGGACCCGGGCGA [Exclusion - Tryptophan B Attempt #1 (HarryS)] | not satisfied
GAAUAAGAAUCGGCCGCCACUCACAUGAGGAUCACCCAUGUACAUGAGGAACAUGAAAAUCACCCGAGGACCGGGAUAUAUGUUC [Excluion - Tryptophan B #1] | satisfied
AGUACUCGAACGGAUACCAGCCGGACAUGAGGAUCACCCAUGUCCUACCUCUGUUCGGUUGGCCCUUGGCAGCCGUUCGUGUACA [Omei Theo B SS A v7] | satisfied
GGGACAUGAGGAUCACCCAUGUACCGGUCCCGAGGACCGGUACGGCCGCCACUCGAUGACCUCAUAGUCUGCUGGAGCAGCAGAC [Usesedarin] | satisfied
GACCUUAUCUGAAGGAGCGAGGUAAAUAGGGAUGAGCAUACAUGAGGAUCACCCAUGUGGCCUCAGGUAGGUCGCAGAUGAGAUU [Exclusion Arginine B GF27] | satisfied
CAGCCUGAUUGGUAAAUCCCUCAUCGUGAUACCAGUCGAGUGAUCGACCCUUGGCAGCACAUGAGGAUCACCCAUGUGCGCGUAA [Raisener] | satisfied
GCGACCCUGAGAUCCUACGUAACGUGAACACGAGGACCGGUACGGCCGCCACUCGAGAGAACAUGAGGAUCACCCAUGUCUGAGC [e-trypA-0] | satisfied
GCUGUUGCGGUGAGGUAUCCGGCUGUGGAAGGAGCGCGGAAUGCCGCAGGUAGGUCGCCACAUGAGGAUCACCCAUGUCGAUAUA [Atzalama] | satisfied
AAUGAUGCGAUCUACAGUCGAGGAUUCGAUACCAGCAACGGGCGUUGCCCUUGGCAGCGAGCUACAUGAGGAUCACCCAUGUUAC [theeternabot_exclusion_MS2_Theo_A_45] | not satisfied

Could you tell me if the measured apparent KD of MS2 coat protein of AGUUAUUUCCGAAGGAGCGUUAUACAUGAGGAUCACCCAUGUACAUGAGGUUCAACAUGAAAACAGGUAGGUCGCGGAUUUUGUC [Exclusion Arginine B4] reaches 30 nM or more?
not satisfied

Now this one: ACAUUUAACUGAAGGAGCGUGAUAUUUACAUGAGGAUCACCCAUGUCUAUCAUGAGAUAUUCACAGGUAGGUCGCAGACUAAUGA [JR_ExcArginiB_Sub005]
satisfied

###

# Tested on: MS2 coat protein
# procedure-text: apparent KD of MS2 coat protein; designed switch direction (-1 OFF switch, 1 ON switch): 1; higher = weaker reporter binding
# condition-parameters: Eterna round: R95; input ligand: none
// apparent KD of MS2 coat protein lookup, one value per entry
Please state the figure in nM; there is no need to write the unit.

Use the examples below as a reference point.
UGCAUACAUGAGGAUCACCCAUGUCAACGUAGCCGAGGAUAUGGAUUGCCGUGAGGCGUGCCAGAAGGCGGAGAGG [Same State 1 - Mod of Vinnie Teenbexe] (puzzle: Same State 1) | 59
GGUGUACAUGAGGAUCACCCAUGUCGACCGCUCACAGGAUAUUUAAUACAAACUGGUAGCGGAGAAGGGUGAGGAA [Oresbeve] (puzzle: Same State 1) | 247

Lab note: need apparent KD of MS2 coat protein for AUAAAACAUGAGGAUCACCCAUGUCAACAAAGUCGAGGAUAUGGGCAAAUAAAAGAAUAACCAGAAGGCGAAUAAU [salish99_ss1_r3_053] (puzzle: Same State 1) on MS2 coat protein, anyone have it?
481

###

Recorded apparent KD of MS2 coat protein by entry
# Test system: MS2 coat protein
# procedure-text: apparent KD of MS2 coat protein; higher = weaker reporter binding
# condition-parameters: Eterna round: R107; input ligand: theophylline 20 uM
Kindly provide the numeric value in nM only, without the unit symbol.

Worked set:
AGGACCAGGAACAUGGGUGAACUGGUCCAACGAGGACCGGUACGGCCGCCACUCGAAUAAACAUGAGGAUCACCCAUGUAAUAAU [T''-M-T'-T-MS2] | 296
CCUGGACAUGAGGAUCACCCAUGUGAGGAUACCAGAUAUCCUGAUAUCCCUUGGCAGCCUCAUUACUUCGCAUUACCGAAACUUC [theeternabot_sameState_MS2_Theo_A_35] | 166

Pending sequence:
Name the reported apparent KD of MS2 coat protein value associated with the sequence CAGCAACAAUUGGAUACCAGCCAUUACAGGUAUCAUUAUAACAUGAGGAUCACCCAUGUAGGCCCUUGGCAGCCAUUGGUGUAAG [theeternabot_exclusion_MS2_Theo_B_22]
69

###

Below is a list of entries, each paired with its recorded apparent KD of MS2 coat protein value.
# Tested on: MS2 coat protein
# procedure-text: apparent KD of MS2 coat protein; higher = weaker reporter binding
# condition-parameters: Eterna round: R107; input ligand: arginine 13.2 mM
Unit nM implied. Number only.

// solved cases for apparent KD of MS2 coat protein follow
GCACCAGGUACGGAUACCAGCUAUAGGUACAGCGGAGGACAUGAGGAUCACCCAUGUGGUAGCCCUUGGCAGCUGUACCUGGUGC [EThB NP+V+V2 #1 +-Same Structure] | 17.7
AUACAUGAGGAUCACCCAUGUCACACAGAAGGAGCGGCUGUAGAGCCAGGUAGGUCGCUGUACUGAAAAUACUUCAUACUCAUGU [#30 Exclusion - Arginine A] | 21.7
AGAUUUAUUUUGACCGGGCUCAUUCCUGAAGGAGCGCAGAACAAUGCAGGUAGGUCGCAGGACAUGAGGAUCACCCAUGUCAAGC [Isaes] | 14.2
UAUAUAGUGAUGGAUACCAGCAGAGAAAACGUUUAUCCUAACAUGAGGAUCACCCAUGUAUGCCCUUGGCAGCUGUUGUUAUAUA [8.L] | 20.8
GGGCUGUGACCAGGAAAUGGUCACAGCCCACGAGGACCGGUACGGCCGCCACUCGAAAGUACAUGAGGAUCACCCAUGUCGGUGG [#1 Same State - Tryptophan A Attempt #8 (HarryS)] | 25.9

Next:
Quick check: apparent KD of MS2 coat protein of UGAGUUAGACAAAAGUCUAGCUCUGGUGAAGGAGCGUCCGAAAGGACAGGUAGGUCGCACCACCUGAGGAUCACCCGGGUUCCUA [ArgAS 13 #OpenEnded #AlternativeMS2] ?
360

###

# Tested on: MS2 coat protein
# procedure-text: apparent KD of MS2 coat protein, switch OFF state (with FMN for OFF switches, without FMN for ON switches); designed switch direction (-1 OFF switch, 1 ON switch): 1; higher = weaker reporter binding
# condition-parameters: FMN input: 0 or 200 uM; Eterna round: R93 (includes R88 designs)
// reported apparent KD of MS2 coat protein for each item listed
Field note: include the unit after the figure.

Past entries and their recorded results:
GUGGCCCAGGCACAGGAUAUGUUUCUCGUAACAUGAGGAUCACCCAUGUGCCUAUGAGAUUUAAUGCAGAAGGGUGCACGCCACG [Atiinbe] | 342 nM
GAAAAACAUGAGGAUCACCCAUGUAGAAAUAUGGGAGGAUAUACUAAGACGAAAGUCGAUGUAGAAGGCCUAAAAG [Same State 1.4g (Mat - Mod of Eli - )] | 42.8 nM
AAAGACGUGGCGUAGGAUAUACUAAUAUUCACAUGAGGAUCACCCAUGUUCAUAUAUAUGAACGAGUAGAAGGACGACGAAAAAA [SameState2 Malc#1] | 120 nM
AAUAAUUAUAACGAGGAUAUCCGUAAUAAGACAUGAGGAUCACCCAUGUAAUAAGGGUAAAUAAAGGAGAAGGCGUAGGGUGAAA [JR_SS002_Sub002] | 61.1 nM
AAUAUAUUAAGUGAGGAUAUCAUAGAAAAAACAUGAGGAUCACCCAUGUGGGAAACCUGGUCGGGUGAGAAGGCACUUAAUAUAU [Samwise Clockwise 29 - Jieux - Same State 2] | 704 nM
AUAUGAGCUAUGGAGGAUAUCCAUAACAAGACAUGAGGAUCACCCAUGUAAGAAAGAAAAGAAUGGGAGAAGGCCAUAGCUCAAU [SS 2 M46] | 63.7 nM
AGAAAAAAAACGCAGGAUAUCCAAAAGAAAACAUGAGGAUCACCCAUGUAAAAGAAAAUAAAAUGGGAGAAGGGCGAAAAAAAGA [Mat - Same State 2 - Eli mod - D93] | 18.5 nM
GAAAAACAUGAGGAUCACCCAUGUGAGAAUAUGGGAGGAUAUACAAGGACGAGAGUCAAGGUAGAAGGCCUAAAAG [Mat - Same State 1 - Eli mod - 29] | 247 nM
AGGAAACAUGAGGAUCACCCAUGUAAGAUAAACACAGGAUAUGCGAAAAGAAACAAAGAAGCAGAAGGGUGAAGAA [75%, Ex5 sub 1, 1] | 35.6 nM
GGCUGCAAUUAUGAGGAUAUGUUUGGAUGAACAUGAGGAUCACCCAUGUGGCGAUAGCCGUCUAUGCAGAAGGUGUAGUGGCGGC [Ertion] | 59.1 nM

// apparent KD of MS2 coat protein lookup, key: AAAUAACAUGAGGAUCACCCAUGUUGCAACGAUACAGGAUAUGUGGGUGAAAAUAGCAUGACAGAAGGGUAAUGUA [SameState1 Malc#31]
35 nM

Same for UGGAGACAUGAGGAUCACCCAUGUGAGAAGAGGCGAGGAUAUCGAAAGAAAGAAGAGAAACGAGAAGGCGCGAGUA [salish99-SS1-038]
39.3 nM

And for AUAAAACAUGAGGAUCACCCAUGUAAAAAUAUGGGAGGAUAUGCGAAAUAAAAUAAAUAAGCAGAAGGCCUAAAAA [SS! MT 19] ?
174 nM

Also check AGGAAACAUGAGGAUCACCCAUGUAUAAAAAUGGAAGGAUAUACUAAGACGAAAGUCAUAGUAGAAGGUCUAAAAA [76%, Meechl, 10]
20.7 nM

Now consider AAGAAACAUGAGGAUCACCCAUGUGAUAAUAUGGGAGGAUAUACGAAGACGAAAGUCGAAGUAGAAGGCCUAUGAA [Garnet 42] .
57.2 nM

And AAAAAAAAAAGUGAGGAUAUGUGAUCGGUGACAUGAGGAUCACCCAUGUGAGGCCUUCGGGCCGGACAGAAGGCACAAAAAAAAA [Same State 2-X] ?
257 nM

Again, but for AACACGCGGGCGCAGGAUAUGUCGCUGGUGACAUGAGGAUCACCCAUGUAUACCAUUGCGGUUGAGCAGAAGGGUGAGAUGCGUG [Beisesanxe]
59.5 nM

Now consider GAAAAACAUGAGGAUCACCCAUGUAGAAAUAUGGAAGGAUAUACAAAGACGAAACUGAAAGUAGAAGGUCUAAAAG [Garnet 95] .
22.1 nM

Try this sequence next: GAAAAACAUGAGGAUCACCCAUGUAGAAAUAUGGGAGGAUAUACAAAGUCGAAAGUCAAAGUAGAAGGCCUAAAAG [Garnet 26]
170 nM

Same thing, different sequence: AGGAAACAUGAGGAUCACCCAUGUAAAAAUAUGGGAGGAUAUACGAAGACGAAAGUGAGAGUAGAAGGCCUAAAAG [Garnet 8]
87.7 nM

Ok, now CGGAGACAUGAGGAUCACCCAUGUGAGAAGAGGCGAGGAUAUCGAAAGAAAGAAGAGAAACGAGAAGGCGCGAGUG [salish99-SS1-074]
32.9 nM

Try the sequence GCAAAACAUGAGGAUCACCCAUGUCAACAAAAUCAAGGAUAUGAGCCGGCAUUGCCGGCAUCAGAAGGUGAACCUU [Gemaisinve]
129 nM

Query AUUACAUCUAGUUAGGAUAUCAGAUGUAAGACAUGAGGAUCACCCAUGUCCUAAGAAUAGGUAACUGAGAAGGAACAGGGAGUAU [JR_SS002_Sub418] next
26.8 nM

Here is the next sequence: CAUCAUGCGCCUAAGGAUAUGUCUCACAAGACAUGAGGAUCACCCAUGUAGCCAAAAUAAACGAUGCAGAAGGUGGAGCACAUGC [Atrexe]
602 nM

Try this sequence too: CGAAAGGAGAGAGAGGAUAUCCAAAGGAAAACAUGAGGAUCACCCAUGUAGAAGGUAGGAGAUUGGGAGAAGGCUCAAGAGAGGC [salish99-ss2-150]
46.7 nM
